Origin of values: patent US9175013B2

Tested on: Aβ peptide production in rat primary neuronal culture
Assay: In vitro cellular assay: quantification of Aβ peptide in culture of neurons from rat fetus brain
Format: cell-based, Wistar rat
Details: Primary cortical neuron; Aβ ELISA, rat primary cortical neurons; Aβ species (x-40 or x-42) not given; read-out: IC50
Reported IC50 is given for each of the following compounds.
Express your answer in nM, writing the number without its unit.

COc1cnc(C(=O)Nc2ccc(F)c([C@]34CO[C@H](C(F)F)[C@H]3CSC(N)=N4)c2)cn1: 4

Param readout= IC50; system= Aβ peptide production in rat primary neuronal culture; entry= COc1cnc(C(=O)Nc2cc(F)c(F)c([C@]34CO[C@H](CF)[C@H]3CSC(N)=N4)c2)cn1 ; returns value.
12

Param readout= IC50; system= Aβ peptide production in rat primary neuronal culture; entry= COc1cnc(C(=O)Nc2cc(F)c(F)c([C@]34CO[C@H](C(F)F)[C@H]3CSC(N)=N4)c2)cn1 ; returns value.
7
